Method summary: Conjugator-antibody conjugate maleimide hydrolysis (ring opening) kinetics by reduced LCMS
Type: physicochemical
Condition summary: pH 7, time point 5 h
Description: After the conjugation step, the ADC (or conjugator-antibody conjugate) was subjected to buffer exchange into ring opening buffer (pH 6.5˜9.0, PBS, borate or tris buffer) and the solution was left at 22 or 37° C. for 1˜48 h. The maleimide ring opening process was monitored via reduced LCMS. Once the conjugated maleimide hydrolysis was completed, the resulting ADCs were buffer exchanged into basic tris pH 8.0-8.5 buffer or acidic histidine-acetate pH 5.0-6.5 buffer via dialysis. […]
Use 90% as the dividing line for RO (%) Total, with the line itself on the y side and lower values as n.

The following compounds have reported results that may help.
CN(C)C(=O)CCOCCC(CN)N1C(=O)C=CC1=O (centres unmarked) ... n
CN(C)C(=O)CCNC(=O)OCCC(CN)N1C(=O)C=CC1=O (centres unmarked) ... y
CN(C)C(=O)CN(C)C(=O)OCC(CN)N1C(=O)C=CC1=O (centres unmarked) ... y

Now take the following compound into account.
Q: Hello, I need to know if CN(C)C(=O)CCNC(=O)OCC(CCN)N1C(=O)C=CC1=O (centres unmarked) has measured RO (%) Total not below 90%. Thanks!
A: n

src = patent US20250352659A1
